Molecular target: T1, Nat1 (LTIITLE) (also: TFA salt)
T1 peptide: LTIITLE
Assay: cell-based or functional assay
Non-standard residues stand in square brackets, D forms with d. No end group written: not given here.
Here, each record is paired with measured IC50, Thiofiavin T aggregation assay data.

| binder | IC50, Thiofiavin T aggregation assay |
| --- | --- |
| LTIMLWH | 425 nM |
| IRIRHYRP | 142 nM |
| WTIKLWH | 84 nM |
| IRIYRYK | 60 nM |
| LYIRTLH | 203 nM |
| YTRITYH | 150 nM |
| [dR][dM][dW][dR][dH][dH][dR] [rmwrhhr] | 13200 nM |
| [dF][dW][dR][dW][dH][dR][dA] [fwrwhra] | 228 nM |
